test-target: HLA-B*2701 (Homo sapiens, UniProt P01889, D138H/D201E/D98Y/E176V/E204Q/G107R/H137Y/K202T/L105A/N104T/N87E/Q56L/Q94K/R106L/R155S/R180L/S101N/S121N/S48T/Y140D/Y33H/Y91C)
Construct: expressed in transfected cells; host or cells: RMA-S (TAP-deficient murine cell line)
test-description: HLA/peptide complex stability assay, RMA-S cells transfected with HLA-B*2701
Assay type: cell-based
cond: read-out: EC50, B*2701
Ends that are not written are not given here.
Hi there, I'd appreciate the recorded EC50 for every entry that follows.

In: So what's the measured EC50 for this one? HRFIYLINH [NS2 37-45]
Out: > 200 µM

In: Quick one: EC50 for LRNEESEKMAK [P 198-208] ?
Out: > 200 µM

In: // returns reported EC50 for input GRNEVFSNK [L 2089-2097]
Out: > 200 µM

In: What value of measured EC50 is listed for KRLPADVLKK [M2 150-159] ?
Out: > 200 µM

Data credit: paper PMC4182091
